Recorded values, source patent US20230395193A1.

- Test system: SARS-CoV-1, MERS-CoV and SARS-CoV-2 proteins in HEK293T cells
- Set-up: species or system human
Exercise: for every item that follows, state its recorded MIST_MERS.
Please state the value as a number alone, without comment.

Req: Dear colleague, I am looking for the recorded MIST_MERS of the following molecule: M-Q9BQ95 (protein, UniProt Q9BQ95 49-431, looked up) Evolutionarily conserved …: SSEQSLVPSPPEPRQRPTKALVPFEDLFGQAPGGERDKASFLQTVQKFAEHSVRKRGHIDFIYLALRKMREYGVERDLAVYNQLLNIFPKEVFRPRNIIQRIFVHYPRQQECGIAVLEQMENHGVMPNKETEFLLIQIFGRKSYPMLKLVRLKLWFPRFMNVNPFPVPRDLPQDPVELAMFGLRHMEPDLSARVTIYQVPLPKDSTGAADPPQPHIVGIQSPDQQAALARHNPARPVFVEGPFSLWLRNKCVYYHILRADLLPPEEREVEETPEEWNLYYPMQLDLEYVRSGWDNYEFDINEVEEGPVFAMCMAGAHDQATMAKWIQGLQETNPTLAQIPVVFRLAGSTRELQTSSAGLEEPPLPEDHQEEDDNLQRQQQGQS
Resp: 0

Req: Dear colleague, I am looking for the recorded MIST_MERS of the following molecule: E-Q8WY22 (protein, UniProt Q8WY22 1-251, looked up, prey of SARS-CoV-2 E) BRI3-binding protein: MGARASGGPLARAGLLLLLLLLLLLGLLAPGAQGARGRGGAEKNSYRRTVNTFSQSVSSLFGEDNVRAAQKFLARLTERFVLGVDMFVETLWKVWTELLDVLGLDVSNLSQYFSPASVSSSPARALLLVGVVLLAYWFLSLTLGFTFSVLHVVFGRFFWIVRVVLFSMSCVYILHKYEGEPENAVLPLCFVVAVYFMTGPMGFYWRSSPSGPSNPSNPSVEEKLEHLEKQVRLLNIRLNRVLESLDRSKDK
Resp: 0.9912

Req: Dear colleague, I am looking for the recorded MIST_MERS of the following molecule: M-Q96HR9 (protein, UniProt Q96HR9 1-211, looked up) Receptor expression-enhancing …: MDGLRQRVEHFLEQRNLVTEVLGALEAKTGVEKRYLAAGAVTLLSLYLLFGYGASLLCNLIGFVYPAYASIKAIESPSKDDDTVWLTYWVVYALFGLAEFFSDLLLSWFPFYYVGKCAFLLFCMAPRPWNGALMLYQRVVRPLFLRHHGAVDRIMNDLSGRALDAAAGITRNVLQVLARSRAGITPVAVAGPSTPLEADLKPSQTPQPKDK
Resp: 0

Req: Dear colleague, I am looking for the recorded MIST_MERS of the following molecule: M-Q8TBF5 (protein, UniProt Q8TBF5 22-258, looked up, prey of SARS-CoV-2 M) GPI …: LTRGPAAAFTAARSDAGIRAMCSEIILRQEVLKDGFHRDLLIKVKFGESIEDLHTCRLLIKQDIPAGLYVDPYELASLRERNITEAVMVSENFDIEAPNYLSKESEVLIYARRDSQCIDCFQAFLPVHCRYHRPHSEDGEASIVVNNPDLLMFCDQEFPILKCWAHSEVAAPCALENEDICQWNKMKYKSVYKNVILQVPVGLTVHTSLVCSVTLLITILCSTLILVAVFKYGHFSL
Resp: 0

Req: Dear colleague, I am looking for the recorded MIST_MERS of the following molecule: M-Q9BQT8 (protein, UniProt Q9BQT8 1-299, looked up, interaction partner of viral M protein) Mitochondrial …: MSAKPEVSLVREASRQIVAGGSAGLVEICLMHPLDVVKTRFQIQRCATDPNSYKSLVDSFRMIFQMEGLFGFYKGILPPILAETPKRAVKFFTFEQYKKLLGYVSLSPALTFAIAGLGSGLTEAIVVNPFEVVKVGLQANRNTFAEQPSTVGYARQIIKKEGWGLQGLNKGLTATLGRHGVFNMVYFGFYYNVKNMIPVNKDPILEFWRKFGIGLLSGTIASVINIPFDVAKSRIQGPQPVPGEIKYRTCFKTMATVYQEEGILALYKGLLPKIMRLGPGGAVMLLVYEYTYSWLQENW
Resp: 0.4327
